tested on: HepG2; test: GSK_TCMDC: Percent inhibition of human HepG2 cell line. Test compounds present at 10uM.; type: functional
Threshold rule: Inhibition greater than or equal to 20% is 1; below that, -1.

Check the entry Cc1nc2ccccc2n1C1CC2CCC(C1)N2Cc1nccn1-c1ccccc1.O=C(O)C(F)(F)F (stereo not drawn) : does Inhibition equal or exceed 20%?
-1

Check the entry Cc1cc(C)c(CC(C)NCC(O)c2cccc(C(F)(F)F)c2)c(C)c1.Cl (stereo not drawn) : does Inhibition equal or exceed 20%?
-1

Check the entry CNCCN(C)C(=O)Oc1c(Br)c(C)nc(C)c1-c1ccc(Oc2ccc(OC(F)(F)F)cc2)cc1.Cl : does Inhibition equal or exceed 20%?
-1

Check the entry COC(=O)/C=C/C(=O)N[C@@H]1CC[C@@]2(O)[C@H]3Cc4ccc(O)c5c4[C@@]2(CCN3CC2CC2)[C@H]1O5.Cl : does Inhibition equal or exceed 20%?
-1

Check the entry CC(C)CNCc1cccc(-c2ccc(CN(C(=O)Nc3ccccc3)C3CCN(Cc4ccccc4)CC3)cc2)c1.O=C(O)C(F)(F)F : does Inhibition equal or exceed 20%?
1

Check the entry O=C(NCc1ccc(S(=O)(=O)N2CCC(CN3CCC(c4c[nH]c5ccccc45)CC3)CC2)s1)c1ccccc1 : does Inhibition equal or exceed 20%?
1

Check the entry CC1(C)CCCN(C(=O)Cc2ccc3c(c2)CCCC3)C1CN1CC=CC1.Cl (stereo not drawn) : does Inhibition equal or exceed 20%?
-1

Check the entry COc1nc(N)ncc1C(=O)NC1CN2CCC1CC2 (stereo not drawn) : does Inhibition equal or exceed 20%?
1

Check the entry Oc1ccccc1CNCC(O)c1cc(C(F)(F)F)cc(C(F)(F)F)c1 (stereo not drawn) : does Inhibition equal or exceed 20%?
-1

Check the entry CN1CCC(COC(=O)C(O)(c2ccccc2)c2ccccc2)C1 (stereo not drawn) [TRICLAZATE] : does Inhibition equal or exceed 20%?
-1

Check the entry O=C(Nc1ccc(CN2CCC(c3c[nH]c4ccc(O)cc34)CC2)cc1)c1ccc(-c2ccccc2)cc1 : does Inhibition equal or exceed 20%?
1

Check the entry COCC(=O)N(Cc1cccc(-c2ccc(CNCCc3ccccc3)cc2)c1)C1CCN(Cc2ccccc2)CC1.O=C(O)C(F)(F)F : does Inhibition equal or exceed 20%?
1

Check the entry CCCCCc1cc(O)c2c(c1)OC(C)(C)CC2C1=CCN(Cc2cnc3ccccc3c2)CC1.Cl.O (stereo not drawn) : does Inhibition equal or exceed 20%?
1

Check the entry O=C(/C=C/c1ccc(Cl)c(Cl)c1)NC1CCC(CN2CCC(c3c[nH]c4ccccc34)C(O)C2)CC1 (stereo not drawn) : does Inhibition equal or exceed 20%?
1

Check the entry CC(Cc1ccc(C2=CCNCC2)cc1)NCC(O)c1cccc(C(F)(F)F)c1.Cl (stereo not drawn) : does Inhibition equal or exceed 20%?
1

Check the entry C1=C(c2c[nH]c3ccccc23)CCN(Cc2ccccc2)C1 : does Inhibition equal or exceed 20%?
1

Check the entry COc1cccc(CN2CCC(CCOC(c3ccccc3)c3ccccc3)CC2)c1O : does Inhibition equal or exceed 20%?
1
